All figures here come from ChEMBL document CHEMBL1961873.

Molecular target: Casein kinase II subunit alpha (Homo sapiens)
Details: at 0.1 µM
Description: GSK_PKIS: CK2 mean inhibition at 0.1 uM [Nanosyn]
Measurement type: inhibition (%)

{"Molecular string": "Cc1ccc(O)cc1Nc1ccnc2ccc(S(C)(=O)=O)cc12", "Measurement type": "inhibition", "Observed result": 3.63}
{"Molecular string": "Cc1ccc2c(c1)/C(=N/Nc1ccc(S(N)(=O)=O)cc1)C(=O)N2", "Measurement type": "inhibition", "Observed result": -2.8}
{"Molecular string": "O=C1Nc2ccccc2/C1=C/Nc1ccc2[nH]c(=O)[nH]c2c1", "Measurement type": "inhibition", "Observed result": 3.81}
{"Molecular string": "OCc1ccc(-c2nc(-c3ccccn3)c(-c3ccc4c(c3)OCO4)[nH]2)cc1", "Measurement type": "inhibition", "Observed result": 2.74}
{"Molecular string": "CN1CCN(C(=O)c2ccc(NC(=O)Nc3ccc(N(C)c4ccnc(Nc5ccc(CS(C)(=O)=O)cc5)n4)cc3)cc2)CC1", "Measurement type": "inhibition", "Observed result": 7.1}
{"Molecular string": "CN(C)c1cc2c(Nc3ccc4c(cnn4Cc4ccccc4)c3)ncnc2cn1", "Measurement type": "inhibition", "Observed result": 1.2}
{"Molecular string": "NS(=O)(=O)c1cccc(-c2cc3ccncc3cc2OCc2ccccc2)c1", "Measurement type": "inhibition", "Observed result": 1.61}
{"Molecular string": "O=S(=O)(CCOCc1ccc(-c2ccc3ncnc(Nc4ccc(OCc5cccc(F)c5)c(Cl)c4)c3c2)o1)c1ccccc1", "Measurement type": "inhibition", "Observed result": 1.35}
{"Molecular string": "Nc1nccc(C#Cc2cncnc2Nc2ccc(OCc3cccc(F)c3)c(Cl)c2)n1", "Measurement type": "inhibition", "Observed result": 1.6}
{"Molecular string": "CCS(=O)(=O)c1ccc(OC)c(Nc2ncc(-c3cccc(OC)c3)o2)c1", "Measurement type": "inhibition", "Observed result": 5.03}
{"Molecular string": "Cc1ccc2c(-c3ccnc(Nc4ccc5c(c4)OCCO5)n3)c(-c3ccc(C(F)(F)F)cc3)nn2n1", "Measurement type": "inhibition", "Observed result": 9.31}
{"Molecular string": "O=C(Nc1ccc(Oc2ccc3[nH]c(NC(=O)c4ccco4)nc3c2)cc1)Nc1cc(C(F)(F)F)ccc1F", "Measurement type": "inhibition", "Observed result": 0.08}
{"Molecular string": "CN(C)CCCn1c(-c2nonc2N)nc2cnccc21", "Measurement type": "inhibition", "Observed result": 1.4}

* * *

Biological target: Mitogen-activated protein kinase 11 (Homo sapiens) (UniProt Q15759);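 also: values are mean percent inhibition of p38beta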
Sequence (Q15759 whole entry): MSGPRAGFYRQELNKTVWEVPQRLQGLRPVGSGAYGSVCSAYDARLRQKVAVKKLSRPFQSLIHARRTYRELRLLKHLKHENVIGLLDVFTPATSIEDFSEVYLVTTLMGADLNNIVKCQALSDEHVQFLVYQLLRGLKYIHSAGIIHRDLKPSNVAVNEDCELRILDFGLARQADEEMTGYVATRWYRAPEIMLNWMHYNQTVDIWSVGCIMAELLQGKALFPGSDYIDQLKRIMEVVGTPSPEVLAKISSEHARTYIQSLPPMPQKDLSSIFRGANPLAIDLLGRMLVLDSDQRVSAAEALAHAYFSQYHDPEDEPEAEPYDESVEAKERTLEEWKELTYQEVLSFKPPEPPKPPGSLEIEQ
Details: at 1 µM
Some compounds, each annotated with its measured inhibition.

{"Molecular string": "COc1cccc(-n2ncc3c(N/N=C/c4ccc(S(C)(=O)=O)cc4)ncnc32)c1", "Unit info": "%", "inhibition": 1.99}
{"Molecular string": "O=C1Nc2ccc(-c3cccnc3)cc2C1=Cc1cc(Br)c(O)c(Br)c1", "Unit info": "%", "inhibition": 1.36}
{"Molecular string": "CCS(=O)(=O)c1ccc(OC)c(Nc2ncc(-c3cccc(OC)c3)o2)c1", "Unit info": "%", "inhibition": 5.17}
{"Molecular string": "c1ccc(Nc2ncc(-c3ccccc3)o2)cc1", "Unit info": "%", "inhibition": 5.93}
{"Molecular string": "CN(C)C(=O)O[C@@H]1CN[C@@H](C#Cc2cc3ncnc(Nc4ccc(OCc5cccc(F)c5)c(Cl)c4)c3s2)C1", "Unit info": "%", "inhibition": 6.17}

* * *

Biological target: Macrophage-stimulating protein receptor (Homo sapiens) (UniProt Q04912);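 also: reported values are the mean percent inhibition of RON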
Sequence (Q04912 25-304 limits assumed): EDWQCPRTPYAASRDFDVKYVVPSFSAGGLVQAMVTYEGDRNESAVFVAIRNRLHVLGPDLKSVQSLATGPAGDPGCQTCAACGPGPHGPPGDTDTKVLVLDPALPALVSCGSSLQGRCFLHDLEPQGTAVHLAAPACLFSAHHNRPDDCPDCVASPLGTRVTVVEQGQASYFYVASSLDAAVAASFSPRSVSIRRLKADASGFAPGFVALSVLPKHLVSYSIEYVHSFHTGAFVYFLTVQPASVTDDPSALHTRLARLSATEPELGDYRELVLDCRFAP
Sequence (Q04912 310-1400 limits assumed): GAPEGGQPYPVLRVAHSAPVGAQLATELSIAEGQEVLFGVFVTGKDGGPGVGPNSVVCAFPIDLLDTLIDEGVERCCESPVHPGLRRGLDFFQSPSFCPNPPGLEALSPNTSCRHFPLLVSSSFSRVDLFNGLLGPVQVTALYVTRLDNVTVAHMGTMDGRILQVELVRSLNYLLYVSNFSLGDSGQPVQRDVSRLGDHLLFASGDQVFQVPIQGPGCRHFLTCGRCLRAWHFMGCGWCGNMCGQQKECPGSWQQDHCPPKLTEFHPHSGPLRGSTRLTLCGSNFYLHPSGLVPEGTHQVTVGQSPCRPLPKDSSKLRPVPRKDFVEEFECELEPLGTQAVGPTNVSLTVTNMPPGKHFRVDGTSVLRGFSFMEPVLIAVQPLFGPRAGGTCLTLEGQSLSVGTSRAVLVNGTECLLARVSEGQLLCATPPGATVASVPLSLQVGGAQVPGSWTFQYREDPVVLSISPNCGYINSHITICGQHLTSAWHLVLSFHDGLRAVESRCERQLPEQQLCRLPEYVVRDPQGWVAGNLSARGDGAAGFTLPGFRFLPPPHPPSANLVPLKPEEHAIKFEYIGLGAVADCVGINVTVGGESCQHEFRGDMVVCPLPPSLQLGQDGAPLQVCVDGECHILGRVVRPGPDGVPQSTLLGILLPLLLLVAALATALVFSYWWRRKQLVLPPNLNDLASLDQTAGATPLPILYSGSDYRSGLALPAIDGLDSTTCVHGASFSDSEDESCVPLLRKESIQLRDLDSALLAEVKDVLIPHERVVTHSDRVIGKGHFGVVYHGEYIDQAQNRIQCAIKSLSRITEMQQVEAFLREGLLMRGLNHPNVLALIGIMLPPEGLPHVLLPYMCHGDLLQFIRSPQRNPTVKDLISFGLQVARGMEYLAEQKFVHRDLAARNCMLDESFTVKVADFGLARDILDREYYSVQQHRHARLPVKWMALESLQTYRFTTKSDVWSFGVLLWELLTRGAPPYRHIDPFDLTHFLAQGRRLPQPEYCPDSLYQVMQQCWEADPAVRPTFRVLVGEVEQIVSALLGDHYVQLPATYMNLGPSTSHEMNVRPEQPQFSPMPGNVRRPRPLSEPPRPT
Settings: at 0.1 µM
Measurement type: inhibition (%)

{"Molecular string": "Cc1nc(-c2ccccc2)n2nc(NCCCN3CCOCC3)ncc12", "Unit info": "%", "Observed result": 2.7}
{"Molecular string": "C[C@@H](Oc1cc(-n2cnc3ccc(OC[C@@H](O)CO)cc32)sc1C(N)=O)c1ccccc1Cl", "Unit info": "%", "Observed result": -4.17}
{"Molecular string": "COC(=O)Nc1nc2cc(Oc3ccc(NC(=O)Nc4cccc(Br)c4)cc3)ccc2[nH]1", "Unit info": "%", "Observed result": 1.47}
{"Molecular string": "CCn1c(-c2nonc2N)nc2c(C#CC(C)(C)O)nc(OCCNC)cc21", "Unit info": "%", "Observed result": 6.88}
{"Molecular string": "Nc1nccc(C#Cc2cncnc2Nc2ccc(OCc3cccc(F)c3)c(Cl)c2)n1", "Unit info": "%", "Observed result": -0.99}
{"Molecular string": "Cc1ccc(NC(=O)CC2CC2)cc1-c1ccc(C(=O)NCC2CC2)cc1", "Unit info": "%", "Observed result": -0.78}
{"Molecular string": "Cc1ccc2c(c1)/C(=N/Nc1ccc(S(N)(=O)=O)cc1)C(=O)N2", "Unit info": "%", "Observed result": -3.95}
{"Molecular string": "Cc1ccc(C(=O)NC2CC2)cc1-c1ccc2[nH]ncc2c1", "Unit info": "%", "Observed result": -3.31}
{"Molecular string": "COc1cc2ncnc(Nc3ccc4c(cnn4Cc4ccccc4)c3)c2cc1OC", "Unit info": "%", "Observed result": 3.2}
{"Molecular string": "NC(=O)c1sc(-n2cnc3ccccc32)cc1OCc1ccccc1Br", "Unit info": "%", "Observed result": 9.12}
{"Molecular string": "O=C(Nc1ccc(Oc2ccc3[nH]c(NC(=O)c4ccco4)nc3c2)cc1)Nc1cc(C(F)(F)F)ccc1F", "Unit info": "%", "Observed result": -2.7}
{"Molecular string": "CCS(=O)(=O)c1ccc(OC)c(Nc2nccc(N(C)c3ccc4c(C)n[nH]c4c3)n2)c1", "Unit info": "%", "Observed result": 2.28}
{"Molecular string": "COC(=O)c1cncc(/C=C/c2c(C)cc(O)cc2C)c1", "Unit info": "%", "Observed result": -3.36}
{"Molecular string": "CC(C)c1ccc2c(c1)NC(=O)/C2=N/Nc1ccc(S(N)(=O)=O)cc1", "Unit info": "%", "Observed result": 1.23}
{"Molecular string": "COc1ccc(-c2nn3ncccc3c2-c2ccnc(Nc3cccc(C(F)(F)F)c3)n2)cc1", "Unit info": "%", "Observed result": 0.53}
{"Molecular string": "CN1CCN(C(=O)c2ccc(NC(=O)Nc3ccc(N(C)c4ccnc(Nc5ccc(CS(C)(=O)=O)cc5)n4)cc3)cc2)CC1", "Unit info": "%", "Observed result": 18.6}
{"Molecular string": "NS(=O)(=O)c1cccc(-c2cc3ccncc3cc2OCc2ccccc2)c1", "Unit info": "%", "Observed result": 3.72}
{"Molecular string": "NS(=O)(=O)c1cccc(Nc2cc(-c3ccc(F)cc3)n[nH]2)c1", "Unit info": "%", "Observed result": -6.54}
{"Molecular string": "COc1cccc(-n2nc(C)c3c(N/N=C(\\C)c4ccncc4)ncnc32)c1", "Unit info": "%", "Observed result": -3.77}
{"Molecular string": "CN(c1ccc(NC(=O)Nc2ccc(OC(F)(F)F)cc2)cc1)c1ccnc(Nc2cccc(S(N)(=O)=O)c2)n1", "Unit info": "%", "Observed result": 54.3}
